- protocolConditions: in n-propanol, 288.15 K
valueKind: solubility (mole fraction)
Lab note: write the figure by itself, no unit.

Reported solubility (mole fraction) of `CCc1nc(N)nc(N)c1-c1ccc(Cl)cc1` : 0.00118

###

- protocolConditions: in sec-butanol, 293.15 K
valueKind: solubility (mole fraction)
Lab note: write the figure by itself, no unit.

Reported solubility (mole fraction) of `CCc1nc(N)nc(N)c1-c1ccc(Cl)cc1` : 0.000824

###

- protocolConditions: in acetone, 293.15 K
valueKind: solubility (mole fraction)
Lab note: write the figure by itself, no unit.

Reported solubility (mole fraction) of `CCc1nc(N)nc(N)c1-c1ccc(Cl)cc1` : 0.00171

###

- protocolConditions: in methanol, 318.15 K
valueKind: solubility (mole fraction)
Lab note: write the figure by itself, no unit.

Reported solubility (mole fraction) of `CCc1nc(N)nc(N)c1-c1ccc(Cl)cc1` : 0.00332

###

- protocolConditions: in sec-butanol, 278.15 K
valueKind: solubility (mole fraction)
Lab note: write the figure by itself, no unit.

Reported solubility (mole fraction) of `CCc1nc(N)nc(N)c1-c1ccc(Cl)cc1` : 0.000398

###

- protocolConditions: in n-propyl acetate, 308.15 K
valueKind: solubility (mole fraction)
Lab note: write the figure by itself, no unit.

Reported solubility (mole fraction) of `CCc1nc(N)nc(N)c1-c1ccc(Cl)cc1` : 0.0021

###

- protocolConditions: in methyl acetate, 293.15 K
valueKind: solubility (mole fraction)
Lab note: write the figure by itself, no unit.

Reported solubility (mole fraction) of `CCc1nc(N)nc(N)c1-c1ccc(Cl)cc1` : 0.000811

###

- protocolConditions: in sec-butanol, 283.15 K
valueKind: solubility (mole fraction)
Lab note: write the figure by itself, no unit.

Reported solubility (mole fraction) of `CCc1nc(N)nc(N)c1-c1ccc(Cl)cc1` : 0.000554

###

- protocolConditions: in methyl acetate, 313.15 K
valueKind: solubility (mole fraction)
Lab note: write the figure by itself, no unit.

Reported solubility (mole fraction) of `CCc1nc(N)nc(N)c1-c1ccc(Cl)cc1` : 0.00186

###

- protocolConditions: in sec-butanol, 308.15 K
valueKind: solubility (mole fraction)
Lab note: write the figure by itself, no unit.

Reported solubility (mole fraction) of `CCc1nc(N)nc(N)c1-c1ccc(Cl)cc1` : 0.00164

###

- protocolConditions: in isopropanol, 303.15 K
valueKind: solubility (mole fraction)
Lab note: write the figure by itself, no unit.

Reported solubility (mole fraction) of `CCc1nc(N)nc(N)c1-c1ccc(Cl)cc1` : 0.000853

###

- protocolConditions: in n-propyl acetate, 318.15 K
valueKind: solubility (mole fraction)
Lab note: write the figure by itself, no unit.

Reported solubility (mole fraction) of `CCc1nc(N)nc(N)c1-c1ccc(Cl)cc1` : 0.00289

###

- protocolConditions: in ethanol, 318.15 K
valueKind: solubility (mole fraction)

Reported solubility (mole fraction) of `CCc1nc(N)nc(N)c1-c1ccc(Cl)cc1` : 0.00254
